Source: patent US20240270740A1

List of pIC50 values.
target system: hcGAS (Homo sapiens)
assay notes: hcGAS LCMS assay (direct measurement of cGAMP production)
Format: biochemical
run conditions: 0.5 nM hcGAS, 100 μM ATP, 100 μM GTP, 25 nM dsDNA, 4 h incubation
pIC50: −log10 of the molar value.

COc1c(NC[C@@H]2CCO2)cc(C(=O)Nc2nnc(-n3nccc3C)s2)oc1=O
7.22 to 7.70
COc1c(NC[C@@H]2CCCO2)cc(C(=O)Nc2nnc(-n3nccc3C)s2)oc1=O
7.70 to 8.30
COCCNc1cc(C(=O)Nc2nnc(-c3sccc3Cl)s2)oc(=O)c1OC
7.70 to 8.30
COCCNc1cc(C(=O)Nc2nnc(-c3ccsc3Cl)s2)oc(=O)c1OC
7.22 to 7.70
COC[C@@]1(Nc2cc(C(=O)Nc3nnc(-n4nccc4C)s3)oc(=O)c2OC)CCOC1 (single isomer, unassigned)
7.70 to 8.30

Reported pIC50 ( COc1c(NC(C)C)cc(C(=O)Nc2nnc(-c3c(Cl)ccn3C)s2)oc1=O ) = 7.70 to 8.30

pIC50 reading for COc1c(N[C@@H]2CCC[C@@H]2OC)cc(C(=O)Nc2nnc(-c3c(Cl)ccn3C)s2)oc1=O (single isomer, unassigned) : 7.70 to 8.30

compound COCC1(Nc2cc(C(=O)Nc3nnc(-n4nccc4C)s3)oc(=O)c2OC)COC1 , pIC50 observed: 7.70 to 8.30

====

target system: hcGAS (Homo sapiens, UniProt Q8N884)
Sequence (Q8N884 whole entry): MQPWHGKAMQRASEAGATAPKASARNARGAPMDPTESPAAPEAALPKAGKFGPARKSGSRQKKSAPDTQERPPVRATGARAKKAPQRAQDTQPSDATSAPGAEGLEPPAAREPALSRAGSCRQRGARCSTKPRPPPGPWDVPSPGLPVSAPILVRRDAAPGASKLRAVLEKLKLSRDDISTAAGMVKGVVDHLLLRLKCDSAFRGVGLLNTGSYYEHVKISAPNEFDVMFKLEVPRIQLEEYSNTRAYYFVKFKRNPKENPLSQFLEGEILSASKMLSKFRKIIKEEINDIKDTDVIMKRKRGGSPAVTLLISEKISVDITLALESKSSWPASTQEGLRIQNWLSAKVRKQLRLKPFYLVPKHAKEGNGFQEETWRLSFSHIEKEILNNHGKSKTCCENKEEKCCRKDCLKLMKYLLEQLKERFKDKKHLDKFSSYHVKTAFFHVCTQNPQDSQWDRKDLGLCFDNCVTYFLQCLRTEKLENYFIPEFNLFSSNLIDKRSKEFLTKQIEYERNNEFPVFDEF
assay notes: hcGAS LCMS assay (direct measurement of cGAMP production)
Type: biochemical
run conditions: 0.5 nM hcGAS, 100 μM ATP, 100 μM GTP, 25 nM dsDNA, 4 h incubation
Protocol: cGAS catalyzes the cyclization of ATP and GTP to produce cGAMP, which is the activating ligand of STING. Human cGAS (hcGAS) inhibition can thus be quantified by measuring how much cGAMP is formed either indirectly, by monitoring ATP-depletion as in the hcGAS Kinase-Glo assay (as described below), or directly, such as using the hcGAS LCMS assay (as described below). Compounds were tested for their h-cGAS inhibition activity using direct measurement of cGAMP production by LC/MS. […]
pIC50: −log10 of the molar value.
As shown below, each of these compounds has a reported pIC50 value.

The examples below pair each entry with its known result.
COc1c(NCc2ccccc2)cc(C(=O)Nc2nnc(-n3nccc3C)s2)oc1=O
7.70 to 8.30
COc1c(N[C@@H]2COC[C@@H]2OC)cc(C(=O)Nc2nnc(-n3nccc3C)s2)oc1=O
7.70 to 8.30
COC[C@H](Nc1cc(C(=O)Nc2nnc(-n3nccc3C)s2)oc(=O)c1OC)C1CC1 (single isomer, unassigned)
7.70 to 8.30
COC[C@@H](C)Nc1cc(C(=O)Nc2nnc(-n3nccc3CO)s2)oc(=O)c1OC
7.22 to 7.70
COc1c(N(C)C)cc(C(=O)Nc2nnc(-n3nccc3C)s2)oc1=O
7.22 to 7.70

response.value for COc1c(N2CC[C@@H](OC)C2)cc(C(=O)Nc2nnc(-n3nccc3C)s2)oc1=O (field: pIC50) = 7.70 to 8.30

Value of pIC50 reported for the compound COc1c(N2CCCC2=O)cc(C(=O)Nc2nnc(-n3nccc3C)s2)oc1=O is > 8.30

Sure, the documented pIC50 for COc1c(N[C@H]2CC[C@H]2OC)cc(C(=O)Nc2nnc(-n3nccc3C)s2)oc1=O (single isomer, unassigned) is 7.70 to 8.30
